# ASSAYED TARGET: T1, RTEL1 HHD2 (Homo sapiens, UniProt Q9NZ71 1053-1147)
# T1 sequence: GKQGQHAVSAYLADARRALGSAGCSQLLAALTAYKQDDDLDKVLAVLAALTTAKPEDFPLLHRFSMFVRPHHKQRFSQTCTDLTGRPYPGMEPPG
# ASSAY COMMENT: fluorescence anisotropy; 0.5 mM Mg2+; 20 mM Tris pH 7.5, 50 mM KCl, 0.5 mM MgCl2, 10% glycerol, 0.1% Igepal, 10 nM substrate; EMSA at room temperature 15 min (0-160 nM protein), FA at 25 C (0-2500 nM protein); Hill-slope fit
# ASSAY SETUP: protein: recombinant; tags: N-terminal 6His-Trx removed by TEV; label: 5' 6-FAM; G4
MEASURED ENDPOINT: pKd
Scale note: pKd = -log10(concentration in M).

The binder UUAGGGUUAGGGUUAGGGUUAGGG (structured_RNA) [TERRA G4] showed pKd equal to 6.31

// provenance: paper PMC11344278
